# Tested on: HIV-1 (H9/IIIB strain)
# assay_explanation: microbe, parasite or virus in culture
# Type: cell-based
# test_parameters: 50% normal human serum; MT4-GFP cells infected with HIV-1 H9/IIIB; inhibition of reproductive ratio R0; read-out: Viking, IC50 (50% NHS)
recorded_metric: pIC50
Reminder that pIC50 means the negative base-10 logarithm of the concentration expressed in mol/L.

compound	observed
CC(C)OC(=O)[C@@H](C)CNP(=O)(CO[C@H](C)Cn1cnc2c(N)ncnc21)N[C@@H](C)C(=O)OC1CCCCC1 (single isomer, unassigned) [Example 13B]	6.76

IN: I'd like to know its pIC50. The compound in question is CC(C)OC(=O)[C@@H](C)CNP(=O)(CO[C@H](C)Cn1cnc2c(N)ncnc21)N[C@@H](C)C(=O)OC1CCC1 (single isomer, unassigned) [Example 12B]
OUT: 7.20

IN: Also check CC(C)OC(=O)C[C@H](C)NP(=O)(CO[C@H](C)Cn1cnc2c(N)ncnc21)N[C@H](C)C(=O)OC1CCC1 (single isomer, unassigned) [Example 19A]
OUT: 6.71
